# target of assay: human C5aR(CD88) (Homo sapiens, UniProt P21730)
# Construct: expressed in transfected cells; host or cells: rat basophilic leukemia cells (RBL)
# Sequence (P21730 1-350): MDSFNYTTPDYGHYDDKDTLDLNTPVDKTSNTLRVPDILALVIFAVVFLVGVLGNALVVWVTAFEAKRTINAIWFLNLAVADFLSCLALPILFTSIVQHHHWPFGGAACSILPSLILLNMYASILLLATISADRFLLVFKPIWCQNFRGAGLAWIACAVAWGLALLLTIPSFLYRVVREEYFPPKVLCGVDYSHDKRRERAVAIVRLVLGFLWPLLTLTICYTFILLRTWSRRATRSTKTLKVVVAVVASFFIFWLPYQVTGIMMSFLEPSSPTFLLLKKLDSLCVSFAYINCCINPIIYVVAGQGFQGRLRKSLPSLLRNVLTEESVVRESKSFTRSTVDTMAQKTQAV
# method summary: Determination of the IC50 value in an enzyme release assay (functional assay, antagonistic activity)
# Format: cell-based
# settings: antagonistic activity; IC50 group in enzyme release assay, RBL cells expressing human C5aR(CD88); read-out: activity (group)
Positions of bridges follow the written chain, without caps; N, C: chain ends. Non-standard residues stand in square brackets, D forms with d. Residues, ends and D or L forms follow the SMILES beside them. *: point of attachment. Orn(2-imidazolinyl) = N[C@@H](CCCNC1=NCCN1)C(=O)O; Phe(4-F) = N[C@@H](Cc1ccc(F)cc1)C(=O)O; Bta = N[C@@H](Cc1csc2ccccc12)C(=O)O; Hyp = O=C(O)[C@@H]1C[C@@H](O)CN1; d(hLeu) = CC(C)CC[C@@H](N)C(=O)O; dCha = N[C@H](CC1CCCCC1)C(=O)O; Chg = N[C@H](C(=O)O)C1CCCCC1; Nle = CCCC[C@H](N)C(=O)O; Orn = NCCC[C@H](N)C(=O)O; Aze = O=C(O)[C@@H]1CCN1; Moc = COC(=O)*
observable: IC50

>  <compound>
CC(=O)N[C@@H](CO)C(=O)N[C@@H](Cc1ccccc1)C(=O)N[C@@H](CCCN)C(=O)N1CC[C@H]1C(=O)N[C@H](CC1CCCCC1)C(=O)N[C@@H](Cc1csc2ccccc12)C(=O)N[C@@H](Cc1ccccc1)C(N)=O [Compound 139, Ac-Ser-Phe-Orn-Aze-cha-Bta-Phe-NH2] (Ac-SF[Orn][Aze][dCha][Bta]F-NH2)

>  <target of assay>
human C5aR(CD88) (Homo sapiens, UniProt P21730)

>  <result>
50 to 200 nM

$$$$
>  <compound>
CC(=O)N[C@@H](Cc1ccccc1)C(=O)N[C@H]1CCCNC(=O)[C@H](CCCN=C(N)N)NC(=O)[C@H](C)NC(=O)[C@@H](CC2CCCCC2)NC(=O)[C@@H]2CCCN2C1=O [compound 48] (Ac-F[Orn]P[dCha]AR; lactam 2-C)

>  <target of assay>
human C5aR(CD88) (Homo sapiens, UniProt P21730)

>  <result>
> 2000 nM

$$$$
>  <compound>
CC(C)CC[C@H]1NC(=O)[C@@H]2C[C@@H](O)CN2C(=O)[C@@H](NC(=O)[C@@H](N)Cc2ccccc2)CCCNC(=O)[C@H](C2CCCCC2)NC(=O)[C@H](Cc2ccc(F)cc2)NC1=O [Compound 362, H-Phe-[Orn-Hyp-hle-Pff-Chg]] (H-F[Orn][Hyp][d(hLeu)][Phe(4-F)][Chg]; lactam 2-C)

>  <target of assay>
human C5aR(CD88) (Homo sapiens, UniProt P21730)

>  <result>
50 to 200 nM

$$$$
>  <compound>
CC(=O)N[C@@H](Cc1ccccc1)C(=O)N[C@@H](CCCNC1=NCCN1)C(=O)N1CC[C@H]1C(=O)N[C@H](CC1CCCCC1)C(=O)N[C@@H](Cc1csc2ccccc12)C(=O)N[C@@H](Cc1ccccc1)C(N)=O [Compound 224, Ac-Phe-Ffa-Aze-cha-Bta-Phe-NH2] (Ac-F[Orn(2-imidazolinyl)][Aze][dCha][Bta]F-NH2)

>  <target of assay>
human C5aR(CD88) (Homo sapiens, UniProt P21730)

>  <result>
20 to 50 nM

$$$$
>  <compound>
CCCC[C@@H]1NC(=O)[C@H](Cc2c[nH]c3ccccc23)NC(=O)[C@@H](CC2CCCCC2)NC(=O)[C@@H]2CCCN2C(=O)[C@@H](NC(=O)[C@@H](N)Cc2ccccc2)CCCNC1=O [Compound 42, H-Phe-[Orn-Pro-cha-Trp-Nle]] (H-F[Orn]P[dCha]W[Nle]; lactam 2-C)

>  <target of assay>
human C5aR(CD88) (Homo sapiens, UniProt P21730)

>  <result>
10 to 20 nM

$$$$
>  <compound>
CC(=O)NCCC[C@H](NC(=O)[C@H](Cc1ccccc1)NC(C)=O)C(=O)N1CCC[C@H]1C(=O)N[C@H](CC1CCCCC1)C(=O)N[C@@H](Cc1csc2ccccc12)C(=O)N[C@@H](Cc1ccccc1)C(N)=O [Compound 232, Ac-Phe-OrA-Pro-cha-Bta-Phe-NH2] (Ac-F[Orn](Ac)P[dCha][Bta]F-NH2)

>  <target of assay>
human C5aR(CD88) (Homo sapiens, UniProt P21730)

>  <result>
50 to 200 nM

$$$$
>  <compound>
COC(=O)N[C@@H](Cc1ccccc1)C(=O)N[C@@H](CCCN)C(=O)N1CCC[C@H]1C(=O)N[C@H](CC1CCCCC1)C(=O)N[C@@H](Cc1csc2ccccc12)C(=O)N[C@@H](Cc1ccccc1)C(N)=O [Compound 129, Me-O—CO-Phe-Orn-Pro-cha-Bta-Phe-NH2] (Moc-F[Orn]P[dCha][Bta]F-NH2)

>  <target of assay>
human C5aR(CD88) (Homo sapiens, UniProt P21730)

>  <result>
50 to 200 nM

$$$$

---

Consider the following compounds and their measured pIC50 readings.
# target of assay: human C5aR(CD88) (Homo sapiens, UniProt P21730)
# Construct: expressed in transfected cells; host or cells: rat basophilic leukemia cells (RBL)
# Sequence (P21730 1-350): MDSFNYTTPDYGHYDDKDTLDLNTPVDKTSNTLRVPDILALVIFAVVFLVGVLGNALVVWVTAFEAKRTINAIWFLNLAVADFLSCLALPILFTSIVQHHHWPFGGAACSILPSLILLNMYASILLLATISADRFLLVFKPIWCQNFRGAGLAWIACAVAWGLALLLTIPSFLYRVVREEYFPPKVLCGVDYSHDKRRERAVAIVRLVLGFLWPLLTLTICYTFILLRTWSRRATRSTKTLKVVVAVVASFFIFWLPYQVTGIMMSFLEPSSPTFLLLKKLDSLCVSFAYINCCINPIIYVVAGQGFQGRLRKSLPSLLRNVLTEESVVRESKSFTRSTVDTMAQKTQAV
# method summary: Determination of the IC50 value in an enzyme release assay (functional assay, antagonistic activity)
# Type: cell-based
# settings: antagonistic activity; IC50 group in enzyme release assay, RBL cells expressing human C5aR(CD88); read-out: activity (group)
pIC50: −log10 of the molar value. Positions of bridges follow the written chain, without caps; N, C: chain ends. Non-standard residues stand in square brackets, D forms with d. Residues, ends and D or L forms follow the SMILES beside them. *: point of attachment. Phe(3,4,5-F3) = N[C@@H](Cc1cc(F)c(F)c(F)c1)C(=O)O; Dihydroorotyl(S) = O=C1C[C@@H](C(=O)*)NC(=O)N1; Phe(3,4-F2) = N[C@@H](Cc1ccc(F)c(F)c1)C(=O)O; Phe(3-Cl) = N[C@@H](Cc1cccc(Cl)c1)C(=O)O; Phe(3-OMe) = COc1cccc(C[C@H](N)C(=O)O)c1; Phe(4-Cl) = N[C@@H](Cc1ccc(Cl)cc1)C(=O)O; Phe(3-F) = N[C@@H](Cc1cccc(F)c1)C(=O)O; Phe(4-F) = N[C@@H](Cc1ccc(F)cc1)C(=O)O; Bta = N[C@@H](Cc1csc2ccccc12)C(=O)O; Hyp = O=C(O)[C@@H]1C[C@@H](O)CN1; d(hLeu) = CC(C)CC[C@@H](N)C(=O)O; 2Thi = N[C@@H](Cc1cccs1)C(=O)O; Cha = N[C@@H](CC1CCCCC1)C(=O)O; dCha = N[C@H](CC1CCCCC1)C(=O)O; Pip = O=C(O)[C@@H]1CCCCN1; Nle = CCCC[C@H](N)C(=O)O; Orn = NCCC[C@H](N)C(=O)O; Aze = O=C(O)[C@@H]1CCN1

>  <compound>
CC(=O)N[C@@H](Cc1ccccc1)C(=O)N[C@@H](CCCN)C(=O)N1CCC[C@H]1C(=O)N[C@H](CCC(C)C)C(=O)N[C@@H](Cc1cccc(Cl)c1)C(=O)N[C@@H](CC1CCCCC1)C(N)=O [Compound 289, Ac-Phe-Orn-Pro-hle-Mcf-Cha-NH2] (Ac-F[Orn]P[d(hLeu)][Phe(3-Cl)][Cha]-NH2)

>  <pIC50>
7.30 to 7.70

$$$$
>  <compound>
COc1cccc(C[C@H](NC(=O)[C@H](Cc2ccc(F)cc2)NC(=O)[C@@H](CCC(C)C)NC(=O)[C@@H]2CCCN2C(=O)[C@H](CCCN)NC(=O)[C@H](Cc2ccccc2)NC(C)=O)C(N)=O)c1 [Compound 300, Ac-Phe-Orn-Pro-hle-Pff-Mmy-NH2] (Ac-F[Orn]P[d(hLeu)][Phe(4-F)][Phe(3-OMe)]-NH2)

>  <pIC50>
6.70 to 7.30

$$$$
>  <compound>
CCCC[C@@H]1NC(=O)[C@H](Cc2c[nH]c3ccccc23)NC(=O)[C@@H](CCC(C)C)NC(=O)[C@H](CO)NC(=O)[C@@H](NC(=O)[C@H](Cc2ccccc2)NC(C)=O)CCCNC1=O [Compound 202, Ac-Phe-[Orn-Ser-hle-Trp-Nle]] (Ac-F[Orn]S[d(hLeu)]W[Nle]; lactam 2-C)

>  <pIC50>
6.70 to 7.30

$$$$
>  <compound>
CC(=O)N[C@@H](Cc1ccccc1)C(=O)N[C@@H](CCCN)C(=O)N1CC[C@H]1C(=O)N[C@H](CC1CCCCC1)C(=O)N[C@@H](Cc1ccc(Cl)cc1)C(=O)N[C@@H](Cc1ccccc1)C(N)=O [Compound 81, Ac-Phe-Orn-Aze-cha-Pcf-Phe-NH2] (Ac-F[Orn][Aze][dCha][Phe(4-Cl)]F-NH2)

>  <pIC50>
5.70 to 6.70

$$$$
>  <compound>
CC(=O)N[C@@H](Cc1ccccc1)C(=O)N[C@@H](CCCN)C(=O)N1CCC[C@H]1C(=O)N[C@H](CCC(C)C)C(=O)N[C@@H](Cc1cc(F)c(F)c(F)c1)C(=O)N[C@@H](Cc1ccccc1)C(N)=O [Compound 305, Ac-Phe-Orn-Pro-hle-Tff-Phe-NH2] (Ac-F[Orn]P[d(hLeu)][Phe(3,4,5-F3)]F-NH2)

>  <pIC50>
6.70 to 7.30

$$$$
>  <compound>
CC(=O)N[C@@H](Cc1ccccc1)C(=O)N[C@@H](CCCN)C(=O)N1CC[C@H]1C(=O)N[C@H](CC1CCCCC1)C(=O)N[C@@H](Cc1ccc(F)cc1)C(=O)N[C@@H](Cc1ccccc1)C(N)=O [Compound 99, Ac-Phe-Orn-Aze-cha-Pff-Phe-NH2] (Ac-F[Orn][Aze][dCha][Phe(4-F)]F-NH2)

>  <pIC50>
6.70 to 7.30

$$$$
>  <compound>
CC(C)CC[C@@H](NC(=O)[C@@H]1C[C@@H](O)CN1C(=O)[C@H](CCCN)NC(=O)[C@H](Cc1ccccc1)NC(=O)[C@@H]1CC(=O)NC(=O)N1)C(=O)N[C@@H](Cc1ccc(F)cc1)C(=O)N[C@@H](Cc1ccccc1)C(N)=O [Compound 349, Hoo-Phe-Orn-Hyp-hle-Pff-Phe-NH2] ({Dihydroorotyl(S)}-F[Orn][Hyp][d(hLeu)][Phe(4-F)]F-NH2)

>  <pIC50>
6.70 to 7.30

$$$$
>  <compound>
CC(=O)N[C@@H](Cc1cccs1)C(=O)N[C@@H](CCCN)C(=O)N1CCCC[C@H]1C(=O)N[C@H](CC1CCCCC1)C(=O)N[C@@H](Cc1csc2ccccc12)C(=O)N[C@@H](Cc1ccccc1)C(N)=O [Compound 67, Ac-Thi-Orn-Pip-cha-Bta-Phe-NH2] (Ac-[2Thi][Orn][Pip][dCha][Bta]F-NH2)

>  <pIC50>
7.30 to 7.70

$$$$
>  <compound>
CC(=O)N[C@@H](Cc1ccccc1)C(=O)N[C@@H](CCCN)C(=O)N1CCC[C@H]1C(=O)N[C@H](CCC(C)C)C(=O)N[C@@H](Cc1ccc(F)c(F)c1)C(=O)N[C@@H](Cc1ccccc1)C(N)=O [Compound 283, Ac-Phe-Orn-Pro-hle-Dff-Phe-NH2] (Ac-F[Orn]P[d(hLeu)][Phe(3,4-F2)]F-NH2)

>  <pIC50>
6.70 to 7.30

$$$$
>  <compound>
CCCC[C@@H]1NC(=O)[C@H](Cc2c[nH]c3ccccc23)NC(=O)[C@@H](CC2CCCCC2)NC(=O)[C@@H]2CCCN2C(=O)[C@@H](NC(=O)[C@H](Cc2ccccc2)NC(=O)CON=CC(O)C(O)C(O)C(O)CO)CCCNC1=O (single isomer, unassigned) [Compound 334, Fck-Phe-[Orn-Pro-cha-Trp-Nle]]

>  <pIC50>
6.70 to 7.30

$$$$
>  <compound>
CC(=O)N[C@@H](Cc1cccc(F)c1)C(=O)N[C@@H](CCCN)C(=O)N1CCC[C@H]1C(=O)N[C@H](CCC(C)C)C(=O)N[C@@H](Cc1cccc(Cl)c1)C(=O)N[C@@H](Cc1cccc(F)c1)C(N)=O [Compound 163, Ac-Mff-Orn-Pro-hle-Mcf-Mff-NH2] (Ac-[Phe(3-F)][Orn]P[d(hLeu)][Phe(3-Cl)][Phe(3-F)]-NH2)

>  <pIC50>
6.70 to 7.30

$$$$
>  <compound>
NCCC[C@H](NC(=O)[C@H](Cc1ccccc1)NC(=O)CN)C(=O)N1CCC[C@H]1C(=O)N[C@H](CC1CCCCC1)C(=O)N[C@@H](Cc1csc2ccccc12)C(=O)N[C@@H](Cc1ccccc1)C(N)=O [Compound 345, H-Gly-Phe-Orn-Pro-cha-Bta-Phe-NH2] (H-GF[Orn]P[dCha][Bta]F-NH2)

>  <pIC50>
6.70 to 7.30

$$$$

The measurements presented in this section are drawn from patent US20080161232A1.
